Answer each item with its documented inhibition at 1 µM.
- target_of_assay: human CCR5 (Homo sapiens)
- Construct: expressed in transfected cells; host or cells: CHO-K1 (plasmid pCKR5 in pcDNA3.1, geneticin-selected CHO/CCR5 cells)
- Sequence (P51681 whole entry): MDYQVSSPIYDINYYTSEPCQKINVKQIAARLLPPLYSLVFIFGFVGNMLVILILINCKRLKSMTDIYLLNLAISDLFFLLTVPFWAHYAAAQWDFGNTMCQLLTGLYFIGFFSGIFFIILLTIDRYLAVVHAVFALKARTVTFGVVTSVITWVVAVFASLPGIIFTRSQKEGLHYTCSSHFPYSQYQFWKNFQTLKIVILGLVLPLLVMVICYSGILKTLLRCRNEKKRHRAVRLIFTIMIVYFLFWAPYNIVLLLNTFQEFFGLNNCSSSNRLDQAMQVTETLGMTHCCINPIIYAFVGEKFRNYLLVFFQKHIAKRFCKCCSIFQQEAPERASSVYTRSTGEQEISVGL
- method_summary: inhibition of [^125 I]-RANTES binding to CHO/CCR5 cells (CCR5 antagonistic activity)
- conditions: Test Compound 1 μM, 100 pM [^125 I]-RANTES, room temperature 30 minutes, read-out: Inhibition Rate (%) to CCR5 binding
- Experimental: Cloning of CCR5 gene was carried out by PCR (polymerase chain reaction) from human spleen cDNA. […] The CHO/CCR5 were inoculated on 96 well microplate (5×10^4 cells/well) and cultivated for 24 hours. […] Radio-activity was determined with Top-Count Micro Scintillation Counter (Packard Instrument, Inc.). […]
Entry rule: numbers only, all in %.

Query: Given the entry Cc1ccc(-c2ccc3c(c2)C=C(C(=O)Nc2ccc(C[N+]4(C)CCCCC4)cc2)CCC3)cc1 , report its measured inhibition at 1 µM.
Result: 100

Query: Repeat with Cc1ccc(-c2ccc3c(c2)C=C(C(=O)Nc2ccc(C[N+]4(C)CCCCC4)cc2)CC3)cc1
Result: 88

Query: How about CC(C)(C)c1ccc(-c2ccc3c(c2)C=C(C(=O)Nc2ccc(CP4(=O)CCCCC4)cc2)CCO3)cc1 ?
Result: 99

Query: Continue with Cc1ccc(-c2ccc3c(c2)C=C(C(=O)Nc2ccc(CP4(=O)OCCCO4)cc2)CCO3)cc1 [Reference Example 51]
Result: 73

Query: Consider next the compound Cc1ccc(-c2ccc3c(c2)C=C(C(=O)Nc2ccc(CN(C)C4CCOCC4)cc2)CCO3)cc1 in the same way.
Result: 87

Query: Further, for Cc1ccc(-c2ccc3c(c2)C=C(C(=O)Nc2ccc(C[N+](C)(C)C4CCOCC4)cc2)CCC3)cc1 ?
Result: 99

Query: And then CCOc1ccc(-c2ccc3c(c2)C=C(C(=O)Nc2ccc(C[N+](C)(C)C4CCOCC4)cc2)CCO3)cc1 , what is it?
Result: 96

====

Please provide measured inhibition at 1 µM for the entries that follow.
- target_of_assay: human CCR5 (Homo sapiens)
- Construct: expressed in transfected cells; host or cells: CHO-K1 (plasmid pCKR5 in pcDNA3.1, geneticin-selected CHO/CCR5 cells)
- method_summary: inhibition of [^125 I]-RANTES binding to CHO/CCR5 cells (CCR5 antagonistic activity)
- conditions: Test Compound 1 μM, 100 pM [^125 I]-RANTES, room temperature 30 minutes, read-out: Inhibition Rate (%) to CCR5 binding

Query: What does the data say about its inhibition at 1 µM? Entry: Cc1ccc(-c2ccc3c(c2)C=C(C(=O)Nc2ccc(CC[N+]4(C)CCCCC4)cc2)CCO3)cc1
Result: 100%

Query: What do we get for Cc1ccc(-c2ccc(/C=C/C(=O)Nc3ccc(CP4(=O)CCCCC4)cc3)s2)cc1 ?
Result: 80%

Query: Moving on to Cc1ccc(-c2ccc3c(c2)C=C(C(=O)Nc2ccc(C[N+]4(C)CCCCC4)cc2)CCO3)cc1
Result: 93%

Query: Next: Cc1ccc(-c2ccc3c(c2)C=C(C(=O)Nc2ccc(C[N+](C)(C)C4CCC(=O)CC4)cc2)CCO3)cc1
Result: 96%
